target: CHIKV-LR 2006 (virus) (Chikungunya virus strain LR 2006); test: cell-based or functional assay
quantity: FRNT neutralisation, LR 2006 EC50

- 516.H09 (antibody, V domains shown) VH: QLQLQESGPGLVKPSETLSLTCTVSGGSISSSSYYWGWIRQPPGKGLEWIGSIYYSGSTYYNPSLKSRVTISVDTSKNQFSLKLSSVTAADTAVYYCARHSYCSGGSCYLAPLGDWGQGTLVTVSS VL: SYVLTQPPSVSVAPGKTARITCGGNNIGSKSVHWYQQKPGQAPVLVIYYDSDRPSGIPERFSGSNSGNTATLTISRVEAGDEADYYCQVWDSSSDFYVFGTGTKVTVL: 0.182 µg/mL
- 516.H07 (antibody, V domains shown) VH: EVQLVESGGGLVQPGGSLRLSCAASGFTFSSYEMNWVRQAPGKGLEWVSYMSYTGSTIYYADSVKGRFTISRDNGKNSLYLQMNSLRVEDTAVYYCARGGVVVAPTYFDYWGQGTLVTVSS VL: QSVLTQPPSVSGAPGQRVTISCTGSSSNIGAGYDVHWYQQLPGTAPKLLIYHNNNRPSGVPDRFSASKSGTSASLAITGLQAEDEADYYCQSYDSSLSGWVFGGGTKLTVL: 0.061 µg/mL
- 516.F07 (antibody, V domains shown) VH: EVQLVQSGAEVKKPGESLKISCKGSGYRFTSYWIAWVRQMPGKGLECMGIIYPGDSDTRYSPSFQGQVTISVDKSISTAYLQWSSLKASDTAMFYCARHNNNWSLQGYFDYWGQGTLVTVSS VL: PSALTQPASVSGSPGQSITISCTGTSSDVGGYNYVSWYQQHPGKAPKLMIYDVSNRSSGVSNRFSGSKSGNTASLTISGLQAEDEADYYCSSYTGSSTSNYVFGTGTKVTVL: 0.031 µg/mL
- 516.D09 (antibody, V domains shown) VH: QVQLVQSGAEVKKPGSSVKVSCKAFGGTFSSSAITWVRQAPGQGLEWMGRIIPIFGTANYAQKFQGRVTITADKSTTTAYMELSSLRSEDTAVYYCALKADSYCSGSSCYPSFDYWGQGTLVTVSS VL: SYVLTQPPSVSVAPGKTARITCGGNNIGSKSVHWYQQRPGQAPVLVVYDDSDRPSGIPERFSGSNSGNTATLTISRVEAGDEADYYCQVWDSSSDQEVFGGGTKLTVL: 0.248 µg/mL
